Molecular target: HNE (Homo sapiens)
Sequence (P08246 30-247 limits assumed): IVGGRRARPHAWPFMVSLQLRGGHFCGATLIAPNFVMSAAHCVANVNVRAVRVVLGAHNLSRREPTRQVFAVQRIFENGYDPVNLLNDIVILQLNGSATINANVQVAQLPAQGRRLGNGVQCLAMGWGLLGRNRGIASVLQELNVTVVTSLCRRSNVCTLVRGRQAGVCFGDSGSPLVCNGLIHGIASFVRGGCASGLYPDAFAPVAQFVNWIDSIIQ
pIC50: −log10 of the molar value.
# if value of pIC50 reaches 5, tag yes (1); if it stays below, tag no (0)

- Smiles Code: "CCOC(=O)c1cn(C(=O)c2ccc(Cl)cc2)c2ccccc12"
  Qualitative Label: "yes (1)"
- Smiles Code: "Cc1ccc(C(=O)n2cc(C(=O)Nc3ccccc3)c3ccccc32)cc1"
  Qualitative Label: "no (0)"
- Smiles Code: "CCOC(=O)c1cn(C(=O)c2cccc(C)c2)c2ccc([N+](=O)[O-])cc12"
  Qualitative Label: "yes (1)"
- Smiles Code: "CCOC(=O)c1cn(C(=O)c2cccc(C)c2)c2ccc(Br)cc12"
  Qualitative Label: "no (0)"

====

Reported IC50 values follow for various compounds
target: UniProtKB P08246

- Smiles Code: "CCOC(=O)c1cn(C(=O)c2ccc(C)cc2)c2ccc([N+](=O)[O-])cc12"
  Assay Target: "UniProtKB P08246"
  Measurement Units: "µM"
  IC50: 13.2
- Smiles Code: "CCOC(=O)c1cn(C(=O)c2ccc(C)cc2)c2cc(Br)ccc12"
  Assay Target: "UniProtKB P08246"
  Measurement Units: "µM"
  IC50: 10.5
- Smiles Code: "CCOC(=O)c1cn(C(=O)c2ccc(F)cc2)c2ccccc12"
  Assay Target: "UniProtKB P08246"
  Measurement Units: "µM"
  IC50: 12.2

From: paper PMC5062748
